Target: Pangolin CoV GD1 RBD (Pangolin coronavirus Guangdong, isolate …, strain)
Assay: BLI
Details: both partners purified
# kon annotations
API: value field is a number in M⁻¹ s⁻¹; no unit string.

// known answers, use as guide
*Q* Reported kon, binder H18 (antibody, V domains shown, human IgG1) VH: QVQLQESGPGLVKPSETLSLTCTVSGGSVSSGGYFWSWIRQPPGKGLEWIGCIYYSGSTNYNPSLKSRVTISVDTSKDQFSLKLSSVTAADTAVYYCARQLWLRGRFDYWGQGTLVTVSS VL: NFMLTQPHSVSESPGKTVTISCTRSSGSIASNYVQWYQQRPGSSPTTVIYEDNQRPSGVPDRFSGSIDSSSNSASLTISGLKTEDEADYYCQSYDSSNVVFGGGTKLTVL : ____
*A* 46500

*Q* Reported kon, binder H4 (antibody, V domains shown) VH: EVQLVESGGGLVQPGGSLRLSCAASGFTFSSYWMSWVRQAPGKGLEWVANIKQDGSEKYYVDSVKGRFTISRDNAKNSLYLQMNSLRAEDTAVYYCASQLWLRGAFDIWGQGTMVTVSS VL: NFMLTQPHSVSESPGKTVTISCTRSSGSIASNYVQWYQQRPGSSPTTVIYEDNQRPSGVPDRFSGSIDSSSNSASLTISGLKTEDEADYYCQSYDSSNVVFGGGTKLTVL : ____
*A* 28800

*Q* Reported kon, binder H14 (antibody, V domains shown, human IgG1) VH: QVQLQESGPGLVKPSQTLSLTCTVSGGSISSGGYYWSWIRQHPGKGLEWIGYIYYSGSTYYNPSLKSLVTISVDTSKNQFSLKLSSVTAADTAVYYCARKGWLRGAFDIWGQGTMVTVSS VL: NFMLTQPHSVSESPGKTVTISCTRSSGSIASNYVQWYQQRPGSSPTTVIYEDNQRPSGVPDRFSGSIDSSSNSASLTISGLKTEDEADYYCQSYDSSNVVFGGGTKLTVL : ____
*A* 45500

Switching to the query record.
*Q* Reported kon, binder H16 (antibody, V domains shown, human IgG1) VH: QLQLQESGPGLVKPSETLSLTCTVSGGSISSSSYYWGWIRQPPGKGLEWIGSIYYSGSTYYNPSLKSRVTISVDTSKNQFSLKLSSVTAADTAVYYCARREWLRGPFDYWGQGTLVTVSS VL: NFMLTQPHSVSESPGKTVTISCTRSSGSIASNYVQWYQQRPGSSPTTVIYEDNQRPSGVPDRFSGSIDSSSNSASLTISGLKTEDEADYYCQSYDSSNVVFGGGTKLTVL : ____
*A* 34400
